Ref: BindingDB's records for doi:10.1021/jm030241s

Target: Thymidine kinase (Human herpesvirus 1)
Assay: Binding affinity constant against HSV-1 thymidine kinase
endpoint.name: pKi
Answers are plain numbers, as −log10 of the molar value.

Find the recorded pKi belonging to "O=c1[nH]c(=O)n([C@H]2C[C@H](O)[C@]3(CO)C[C@H]23)cc1C=CBr" and report it.
4.20
